# TARGET SYSTEM: T1, human PD-L1 protein (ELISA antigen) (human, UniProt Q9NZQ7 19-238, limits assumed)
# T1 construct: also called PD-L1-biotin protein
# T1 sequence (Q9NZQ7 19-238 limits assumed): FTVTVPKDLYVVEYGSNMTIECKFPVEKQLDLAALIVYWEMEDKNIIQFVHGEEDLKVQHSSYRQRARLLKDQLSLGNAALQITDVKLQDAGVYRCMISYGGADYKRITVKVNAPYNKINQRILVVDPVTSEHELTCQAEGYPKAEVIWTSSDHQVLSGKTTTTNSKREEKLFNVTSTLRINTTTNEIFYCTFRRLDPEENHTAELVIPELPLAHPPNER
# ASSAY OVERVIEW: ELISA; PD-L1 protein on NeutrAvidin plate, crude nanobody, anti-HA detection; positive = absorbance more than three times control
MEASURE: binding result

Examples with their reported binding result follow.
# BINDER, binding result
records = [
    ("h_Nb12 VHH (VHH) VHH: DVQLQESGGGLVQAGGSLRLSCAASGRTFSSRAMGWFRQAPGKEREFVAAISGSGRNTYYADSVKGRFTISRDNAKNSVNLQMNSLKPEDTAVYYCNAAGGGITIATMTQRTQYDYWGQGTQVTVSS", "binds"),
    ("h_Nb13 VHH (VHH) VHH: DVQLQESGGGLVQPGGSLRLSCAASGSIFSINAMGWYRQAPGKSRELVAAITSGGSTNYADSVKGRFTISRDTAKNTVYLLMNSLEPEDTAVYYCNVERRRPPHYLSEYDFDWGQGTQVTVSS", "binds"),
    ("h_Nb5 VHH (VHH) VHH: DVQLQESGGGAVQSGESLRLSCAASGRDLMFYDVAWFRQAPGKEREGVSYIRSSGTLTKYADSVKGRFTISRDNDKNTVSLQMNSLNPEDTAKYYCAARLQSATSHSDLREDEFNSWGQGTQVTVSS", "binds"),
    ("h_Nb4 VHH (VHH) VHH: DVQLQESGGGLVQAGGSLRLSCAAPSRMFSGYTMGWYRQAPGKQRELVAQIANGGFTDYIDSVKGRFSISRDTVLNMMYLQMNSLKPEDTAVYYCNLVLVNGIPTRNWGQGTQVTVSS", "binds"),
]

[Q] Entry h_Nb2 VHH (VHH) VHH: DVQLQESGGGLVQPGGSLRLSCAASGFTFGDRWMYWLRQAPGKGLEWVSSINPAGRSTYYADSVKGRFTISRDNAKNTLYLQMNSLKSEDTAVYYCTKDPGGYQKGQGTQVTVSS : reported binding result = ?
[A] binds

[Q] Entry h_Nb26 VHH (VHH) VHH: DVQLQESGGGLVQPGGSLRLSCAAPGSIFRINAMGWYRQAPGKQRELVAAITSGGSTNYADSVQGRFTISRDNAKNTVYLQMNSLKPEDTAVYYCNVERRRPPHYYSDYDFDWGQGTQVTVSS : reported binding result = ?
[A] binds

[Q] Entry h_Nb30 VHH (VHH) VHH: DVQLQESGGGLVQPGESLRVSCAASGFTFSNYYMTWVRQAPGKGLEWVSFLNPSSSERFYADSVKGRFTISRDNAKNTLDLLMHSLKPEDTALYYCARHLKYNWAPNYDYWGQGTQVTVSS : reported binding result = ?
[A] binds

[Q] Entry h_Nb1 VHH (VHH) VHH: DVQLQESGGGLVQPGGSLRLSCAASGFTFSSYAMSWVRQAPGKGLEWVSDINSGGDNTDYADSVKGRFTISRDNAKNTLYLQMNSLKPEDTAVYYCARGPKLCFSSWGQGTQVTVSS : reported binding result = ?
[A] binds

[Q] Entry h_Nb9 VHH (VHH) VHH: DVQLQESGGGLVQPGGSLRLSCASSGSIFGLGVKGWYRQPPGNQREMVAQIISGGRISYADSVKGRFTISRDNAKNTVYLQMNSLKPEDTAVYYCNAWGPGQRNYWGRGTQVTVSS : reported binding result = ?
[A] binds
